- TEST: chemical genetic growth profiling, strain panel (AID 1159580);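 note: tested at 20 µM; growth read once vehicle control cultures reached saturation at 30 °C; 1 = growth at the plate median or of vehicle wells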
- CONDITION CONTEXT: S. cerevisiae deletion strains, growth OD, locus YLR258W, strain gsy2, stronger effect = lower value
In all, about 5,500 compounds went through this assay and about 2,000 (36%) were called active. Roughly 18% stayed inconclusive and do not appear here. The list shows a part of the results.
Simple rule here: normalized growth less than 1 is Fulfilled, otherwise Not fulfilled.

Bench note: check whether `C=CCSSCC=C` shows normalized growth below 1 Not fulfilled

====

The following compounds are listed with their measured normalized growth values.
- TEST: chemical genetic growth profiling, strain panel (AID 1159580);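 note: tested at 20 µM; growth read once vehicle control cultures reached saturation at 30 °C; 1 = growth at the plate median or of vehicle wells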
- CONDITION CONTEXT: S. cerevisiae deletion strains, growth OD, locus YMR263W, strain SAP30, stronger effect = lower value
Among all 5,500 compounds or so, about 2,000 (36%) were called active. Inconclusive results (about 18%) are left out. Some of the results follow.

Solved cases below.
- COMPOUND: "C#CCOC(=O)C1=CCCN(C)C1"
  normalized growth: "1 (inactive)"
- COMPOUND: "COc1ccc(OC)c(CNC(=O)Cc2cccs2)c1"
  normalized growth: "1.01 (inactive)"

Tell me its normalized growth given `O=C(CCCN1CCC(O)(c2ccc(Cl)cc2)CC1)c1ccc(F)cc1` as the entry. 0.996 (inactive)

Return normalized growth for the following compound: `CSc1nc(NC(C)C)nc(NC(C)C)n1` 1.02 (inactive)

Specify reported normalized growth for the compound shown: `Cc1c(C(N)=O)cc([N+](=O)[O-])cc1[N+](=O)[O-]` 0.997 (inactive)

Return reported normalized growth. Input compound: CC1CCCC(C)N1NC(=O)c1ccc(Cl)c(S(N)(=O)=O)c1 (centres undefined) 0.982 (inactive)

State its normalized growth: CC1Cc2ccccc2N1NC(=O)c1ccc(Cl)c(S(N)(=O)=O)c1 (centres undefined) 1.02 (inactive)

Respond only with normalized growth recorded for `O=C(Nc1ccccc1)N1CCN(C(c2ccccc2)c2ccccc2)CC1` 0.989 (inactive)
